Biological target: Tyrosinase (Agaricus bisporus, UniProt O42713)
Sequence (O42713 whole entry): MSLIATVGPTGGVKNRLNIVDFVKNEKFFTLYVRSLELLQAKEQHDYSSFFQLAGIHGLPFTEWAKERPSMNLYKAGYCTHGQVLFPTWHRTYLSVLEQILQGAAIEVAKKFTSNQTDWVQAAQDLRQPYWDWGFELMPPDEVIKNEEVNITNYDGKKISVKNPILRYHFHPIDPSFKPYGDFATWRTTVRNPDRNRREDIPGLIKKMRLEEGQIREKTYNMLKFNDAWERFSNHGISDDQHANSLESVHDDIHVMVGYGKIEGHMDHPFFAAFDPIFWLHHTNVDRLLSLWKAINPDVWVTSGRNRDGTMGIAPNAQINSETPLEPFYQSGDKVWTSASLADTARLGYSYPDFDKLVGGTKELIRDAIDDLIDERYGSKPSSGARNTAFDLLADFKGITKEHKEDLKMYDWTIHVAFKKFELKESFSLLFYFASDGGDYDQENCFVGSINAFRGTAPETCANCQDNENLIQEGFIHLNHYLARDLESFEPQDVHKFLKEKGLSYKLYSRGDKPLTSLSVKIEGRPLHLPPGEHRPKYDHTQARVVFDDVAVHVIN
Test: Mixed-type inhibition of mushroom tyrosinase using L-tyrosine as substrate by Lineweaver-Burk plot analysis
PARAMETER MEASURED: Ki (nM)
Your answer should be a plain number; it is taken to be in nM.

Ask | // fetch Ki given entry `CN(C)c1ccc(/C=N/NC(N)=S)cc1`
Reply | 1770

* * *

Target: Tyrosinase (Agaricus bisporus, UniProt O42713)
Sequence (O42713 whole entry): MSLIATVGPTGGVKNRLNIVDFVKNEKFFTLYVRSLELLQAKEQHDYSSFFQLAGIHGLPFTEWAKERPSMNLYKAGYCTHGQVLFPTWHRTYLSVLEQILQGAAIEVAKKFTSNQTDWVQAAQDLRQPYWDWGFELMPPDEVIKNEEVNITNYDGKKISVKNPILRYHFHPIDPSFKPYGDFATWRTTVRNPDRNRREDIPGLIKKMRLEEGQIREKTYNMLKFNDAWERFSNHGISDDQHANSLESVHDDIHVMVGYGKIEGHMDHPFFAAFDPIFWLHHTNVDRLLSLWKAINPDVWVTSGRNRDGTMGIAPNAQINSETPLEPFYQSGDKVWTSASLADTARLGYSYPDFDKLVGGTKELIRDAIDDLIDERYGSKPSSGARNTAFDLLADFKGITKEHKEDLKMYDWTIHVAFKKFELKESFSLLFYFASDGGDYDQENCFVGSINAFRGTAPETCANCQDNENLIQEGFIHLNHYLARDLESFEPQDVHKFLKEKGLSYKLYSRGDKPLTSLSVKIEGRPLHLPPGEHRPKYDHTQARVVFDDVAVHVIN
Test: Mixed-type inhibition of mushroom tyrosinase using L-dopa as substrate preincubated for 5 mins followed by substrate addition and measured for 3 mins
PARAMETER MEASURED: Ki (nM)
// return numeric value only (unit: nM, not printed)

Ask | Find the measured Ki of NC(=S)N/N=C/c1ccccc1 [PHENYLTHIOSEMICARBAZONE] and report it.
Reply | 930

* * *

Molecular target: UniProtKB O42713
Experiment: Mixed-type inhibition of mushroom tyrosinase by Lineweaver-Burk plot analysis
PARAMETER MEASURED: pKi
Scale for pKi: -log10 of concentration given in mol/L; no unit attached.

Ask | Identify pKi associated with the molecule `NC(=S)N/N=C/c1ccc(Cl)cc1`
Reply | 5.90

* * *

Would you mind telling me the reported pIC50 of each entry?
Biological target: Tyrosinase (Agaricus bisporus, UniProt O42713)
Test: Inhibition of mushroom tyrosinase monophenolase activity using L-tyrosine as substrate
Note on units: pIC50 is unitless, being -log10 of a concentration expressed in mol/L.

Ask | Consider the compound `NC(=S)N/N=C/c1ccc(Cl)cc1` tested on Tyrosinase (Agaricus bisporus, UniProt O42713); state its pIC50.
Reply | 5.17

Ask | # return pIC50 for `NC(=S)N/N=C/c1ccccc1Cl` , test system: Tyrosinase (Agaricus bisporus, UniProt O42713)
Reply | 4.81

Ask | Specify the recorded pIC50 for `CN(C)c1ccc(/C=N/NC(N)=S)cc1` , system: Tyrosinase (Agaricus bisporus, UniProt O42713).
Reply | 5.81

Ask | Send back Tyrosinase (Agaricus bisporus, UniProt O42713) pIC50 of `CN(C)c1ccc(/C=N/NC(=S)Nc2ccccc2)cc1` only.
Reply | 5.75

* * *

Target sequence: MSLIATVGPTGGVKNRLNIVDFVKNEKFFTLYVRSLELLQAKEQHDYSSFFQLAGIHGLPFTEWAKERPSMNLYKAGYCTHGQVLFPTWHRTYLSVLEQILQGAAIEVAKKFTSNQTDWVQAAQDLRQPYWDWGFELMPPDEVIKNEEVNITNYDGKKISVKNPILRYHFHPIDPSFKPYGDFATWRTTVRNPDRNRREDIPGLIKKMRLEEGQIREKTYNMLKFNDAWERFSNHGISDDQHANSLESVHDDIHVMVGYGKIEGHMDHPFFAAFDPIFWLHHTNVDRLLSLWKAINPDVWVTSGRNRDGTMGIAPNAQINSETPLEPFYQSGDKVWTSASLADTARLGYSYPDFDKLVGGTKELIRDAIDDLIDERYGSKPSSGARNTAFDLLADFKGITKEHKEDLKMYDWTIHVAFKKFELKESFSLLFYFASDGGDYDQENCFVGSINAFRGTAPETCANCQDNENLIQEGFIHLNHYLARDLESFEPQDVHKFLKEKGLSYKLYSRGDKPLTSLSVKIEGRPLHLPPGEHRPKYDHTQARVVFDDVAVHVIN
pIC50: −log10 of the molar value.
Parameter threshold = 6. Response is t when pIC50 meets or exceeds it, else f.

Ask | Entry `C/C(=N\NC(N)=S)c1ccc[nH]1` : is its pIC50 no less than 6?
Reply | f

Ask | Decide: is the reported value of pIC50 for `NC(=S)N/N=C/c1cccs1` equal to or greater than 6?
Reply | t

Ask | Textbook exercise: given the entry `NC(=S)N/N=C/c1ccc(Cl)cc1` , state whether its pIC50 is greater than or equal to 6.
Reply | f

Ask | Kindly determine if pIC50 recorded for `NC(=S)N/N=C/c1ccc[nH]1` is above or exactly 6.
Reply | f

Ask | Hi, just wondering whether `NC(=S)N/N=C/c1ccco1` shows pIC50 of 6 or higher.
Reply | f

Ask | Check the entry `CN(C)c1ccc(/C=N/NC(N)=S)cc1` : does pIC50 equal or exceed 6?
Reply | f

* * *

Sequence of the target: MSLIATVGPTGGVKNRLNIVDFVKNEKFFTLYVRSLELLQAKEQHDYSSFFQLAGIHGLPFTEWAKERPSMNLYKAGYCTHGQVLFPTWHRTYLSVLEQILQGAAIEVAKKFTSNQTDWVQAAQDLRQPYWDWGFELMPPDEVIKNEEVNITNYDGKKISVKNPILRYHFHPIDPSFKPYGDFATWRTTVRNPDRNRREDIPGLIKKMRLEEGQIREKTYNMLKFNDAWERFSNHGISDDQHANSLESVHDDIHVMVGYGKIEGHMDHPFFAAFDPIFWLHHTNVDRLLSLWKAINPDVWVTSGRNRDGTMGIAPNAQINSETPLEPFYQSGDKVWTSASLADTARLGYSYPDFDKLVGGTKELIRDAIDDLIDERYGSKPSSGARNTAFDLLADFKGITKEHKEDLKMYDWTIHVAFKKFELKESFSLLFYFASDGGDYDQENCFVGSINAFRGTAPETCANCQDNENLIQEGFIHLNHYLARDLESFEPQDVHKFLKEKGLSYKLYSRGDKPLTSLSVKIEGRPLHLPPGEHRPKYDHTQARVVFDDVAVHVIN
PARAMETER MEASURED: pKi
Would you please state pKi, meaning minus log10 of the concentration in mol/L, as a bare number?

Ask | Could you please provide reported pKi for `NC(=S)N/N=C/c1cccs1` ? Thanks!
Reply | 3.78

Ask | State its pKi: `NC(=S)N/N=C/c1ccc[nH]1`
Reply | 7.10

Ask | Please look at this molecule and report its pKi: `NC(=S)N/N=C/c1ccco1`
Reply | 6.22

* * *

Biological target: Tyrosinase (Agaricus bisporus, UniProt O42713)
Assay: Non-competitive inhibition of mushroom tyrosinase using L-dopa as substrate preincubated for 5 mins followed by substrate addition and measured for 5 mins
PARAMETER MEASURED: pKi
Just so you know, pKi here is -log10 of the concentration in molar units; reply with that number alone.

Ask | Provide only the value of recorded pKi for `NC(=S)N/N=C/c1ccccc1`
Reply | 5.43

* * *

Biological target: Tyrosinase (Agaricus bisporus)
Sequence (O42713 whole entry): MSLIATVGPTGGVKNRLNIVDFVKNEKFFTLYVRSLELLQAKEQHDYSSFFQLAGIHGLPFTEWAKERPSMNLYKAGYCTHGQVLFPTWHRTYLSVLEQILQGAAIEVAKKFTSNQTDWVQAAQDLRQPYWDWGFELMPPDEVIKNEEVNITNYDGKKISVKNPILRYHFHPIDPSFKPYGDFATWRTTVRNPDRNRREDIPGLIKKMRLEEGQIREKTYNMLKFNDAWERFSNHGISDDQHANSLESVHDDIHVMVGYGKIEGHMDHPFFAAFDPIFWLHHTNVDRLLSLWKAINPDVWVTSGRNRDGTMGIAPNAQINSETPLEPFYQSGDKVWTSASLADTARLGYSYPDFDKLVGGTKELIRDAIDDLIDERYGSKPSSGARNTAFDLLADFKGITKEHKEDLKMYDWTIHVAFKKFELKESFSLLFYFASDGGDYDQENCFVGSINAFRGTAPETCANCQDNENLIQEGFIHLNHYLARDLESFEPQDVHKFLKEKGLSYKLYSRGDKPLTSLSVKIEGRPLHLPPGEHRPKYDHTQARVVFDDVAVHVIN
Assay: Inhibition of mushroom tyrosinase using L-dopa as substrate preincubated for 10 mins followed by substrate addition and measured for 1 min
# class assignment by measured IC50: class 0 = under 500 nM, class 1 = from 500 nM up to 2000 nM, class 2 = 2000 nM and over

Ask | Bin this entry: `COCCCCOc1ccc(/C=N/NC(N)=S)cc1`
Reply | class 0

Ask | Into which category would you place `C=CCOc1ccc(/C=N/NC(N)=S)cc1` ?
Reply | class 1

Ask | Please indicate the class for `NC(=S)N/N=C/c1ccc(OCOC(CO)CO)cc1` based on its IC50.
Reply | class 1

Ask | Band assignment needed for `NC(=S)N/N=C/c1ccc(O)cc1Br` please.
Reply | class 0

Ask | Please let me know in which category the item `COc1ccc(OC)c(/C=N/NC(N)=S)c1` belongs.
Reply | class 2

Ask | Hi there! Could you help me figure out the category for `CCCCOc1ccc(/C=N/NC(N)=S)cc1` please?
Reply | class 1

Ask | Returns: class label. Input: `NC(=S)N/N=C/c1ccc(O)cc1O`
Reply | class 0

Ask | Category of `COc1cc(/C=N/NC(N)=S)ccc1O` , please.
Reply | class 2

Ask | Bin? `NC(=S)N/N=C/c1ccc(OCCO)cc1`
Reply | class 1

Ask | Which class is correct for the following compound? `CCOc1ccc(/C=N/NC(N)=S)cc1`
Reply | class 1

Ask | Input `NC(=S)N/N=C/c1ccc(Br)cc1` ; output its category
Reply | class 0

Ask | In plain terms, what class is `COc1ccc(/C=N/NC(N)=S)cc1O` ?
Reply | class 2

Ask | Please indicate the class for `CC(C)COc1ccc(/C=N/NC(N)=S)cc1` based on its IC50.
Reply | class 2

Ask | Textbook exercise: identify the category of the compound given here, `CCCCOCCOc1ccc(/C=N/NC(N)=S)cc1` , according to its measured value.
Reply | class 1

Ask | // return the class label for `NC(=S)N/N=C/c1cccc(O)c1`
Reply | class 2

Numbers sourced from ChEMBL document CHEMBL4368896.
